- target.desc: SYK (human) (UniProt P43405)
- protocol.summary: radiometric filter-binding kinase assay, Kinase HotSpot
- stated.conditions: compound 0.5 µM; ATP 10 µM
// reported residual activity per item
readout.label: residual activity (%)

# molecule, reading
records = [
    ("c1ccc(-c2cnc(Nc3ccc(OCCN4CCCC4)cc3)s2)cc1", 89.2),
    ("COc1cc2c(Nc3ccc(Br)cc3F)ncnc2cc1OCC1CCN(C)CC1", 101),
    ("N#CCCc1ccc2c(c1)-c1[nH]c3ccc([N+](=O)[O-])cc3c1CC(=O)N2", 58),
    ("O=C1NC(=O)c2cc(Nc3ccc(F)cc3)c(Nc3ccc(F)cc3)cc21", 98.8),
]
